# growth inhibition per record follows
# Assay: NCI Yeast Anticancer Drug Screen. Data for the sgs1 mgt1 strain (AID 161);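 further: 0% = growth of cultures given vehicle only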
# Condition Parameters: S. cerevisiae sgs1 mgt1 strain, at 50.0 µM, hits give high values
The panel holds about 79,000 compounds, 15% with a hit somewhere; the sample as a whole holds those more often.
Write the value in % as a bare number.

Solved cases below.
{"Compound": "O=C1C(O)=CC(=C(c2ccccc2)c2ccccc2)c2cc(Br)ccc21", "U": "%", "growth inhibition": 44.4}
{"Compound": "Clc1ccccc1C1N2CCCCC2[C@@H]2c3[nH]c4ccccc4c3CCN12 (stereo partly drawn)", "U": "%", "growth inhibition": 9.25}
{"Compound": "N#CC1(C2CC(=O)N(c3ccccc3)C2=O)CCCCC1=O (stereo not drawn)", "U": "%", "growth inhibition": 26.5}
{"Compound": "CC1COC(c2ccc(C(C)C)cc2)O1 (stereo not drawn)", "U": "%", "growth inhibition": 0.25}
{"Compound": "Cc1ccc(OS(=O)(=O)NC(=O)NCc2ccco2)cc1", "U": "%", "growth inhibition": 7.7}
{"Compound": "Nc1nc(=O)n(C2CCC(CO)O2)cc1F (stereo not drawn)", "U": "%", "growth inhibition": 16.2}
{"Compound": "Cc1cc(C)[n+](C)c(/C=C\\c2ccccc2Cl)n1", "U": "%", "growth inhibition": 10.6}
{"Compound": "O=C(O)C12CCCCC1CCCC2 (stereo not drawn)", "U": "%", "growth inhibition": -6.25}

growth inhibition lookup needed for "Cc1ccc2c(-c3ccc4ccccc4c3)c3ccccc3cc2c1" , thanks.
-2.8

growth inhibition lookup needed for CC1(C)OC(C2SCCS2)C2OC(=O)C(O[Si](C)(C)C(C)(C)C)C2O1 (stereo not drawn) , thanks.
2.75

growth inhibition lookup needed for "CCOC(=O)c1nc2c(C)nc(N)nc2[nH]c1=O" , thanks.
-12

growth inhibition lookup needed for "CCOc1ccccc1NC(C)=O" , thanks.
2.2

----------
# Assay: NCI Yeast Anticancer Drug Screen. Data for the mec2-1 strain (AID 157)
# Condition Parameters: S. cerevisiae mec2-1 strain, at 50.0 µM, hits give high values
The panel holds about 79,000 compounds, 15% with a hit somewhere; the sample as a whole holds those more often.
# growth inhibition per record follows
Write the value in % as a bare number.

Solved cases below.
{"Molecule": "O=c1[nH]nc(-c2ccccc2)n1-n1cccc1", "Measured Endpoint": "growth inhibition", "Number": -26.1}
{"Molecule": "O=C(NNC(=O)c1cccc2ccccc12)c1ccccc1F", "Measured Endpoint": "growth inhibition", "Number": -12.6}
{"Molecule": "CN(C)c1nc(NN)c2c(-c3ccccc3)c(-c3ccccc3)oc2n1", "Measured Endpoint": "growth inhibition", "Number": 3.9}
{"Molecule": "O=c1ccocc1OC1OC(CO)C(O)C(O)C1O (configuration not stated)", "Measured Endpoint": "growth inhibition", "Number": -26.4}
{"Molecule": "CCCCCCCC(CCCCCCC)C(=O)OCCO", "Measured Endpoint": "growth inhibition", "Number": -7.9}
{"Molecule": "Cc1ccc(NC(=O)OCCOc2ccccc2)cc1NC(=O)OCCOc1ccccc1", "Measured Endpoint": "growth inhibition", "Number": 17.1}

growth inhibition lookup needed for "CC(C)(C)/C=N/Nc1ccc([N+](=O)[O-])cc1[N+](=O)[O-]" , thanks.
15.1

growth inhibition lookup needed for "CCCCCCCC(=O)NS(=O)(=O)c1ccccc1" , thanks.
20.7

growth inhibition lookup needed for "O=C(O)c1c(O)c(O)cc2ccccc12" , thanks.
-17.8

growth inhibition lookup needed for "CCC1N(C)CCCN1C" , thanks.
-2.9

growth inhibition lookup needed for "O=c1[nH]c2cccnc2[nH]c1=O" , thanks.
-44

----------
# Assay: NCI Yeast Anticancer Drug Screen. Data for the cln2 rad14 strain (AID 165);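 further: 0% = growth equal to vehicle treated cultures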
# Condition Parameters: S. cerevisiae cln2 rad14 strain, at 50.0 µM, hits give high values
About 79,000 compounds went through this panel and 15% of them were active in at least one assay; those are over-represented in the sample as a whole.
# growth inhibition per record follows
Write the value in % as a bare number.

{"Compound": "O=C(CCN1CCOCC1)c1csc2ccccc12", "growth inhibition [%]": 14.9}

growth inhibition lookup needed for "O=C(O)c1ccc(-c2ccc(O)cc2)cc1" , thanks.
-34

growth inhibition lookup needed for "CC(=O)Oc1cc2c(cc1OC(C)=O)C(=O)c1cc3c(cc1C2=O)OCO3" , thanks.
-17.2

growth inhibition lookup needed for O=[N+]([O-])c1cccc(C2CC(c3ccccc3)=NN2c2ccccc2)c1 (stereo unspecified) , thanks.
-9.4

growth inhibition lookup needed for "C(=C/c1ccccc1)/CNCCNC/C=C/c1ccccc1" , thanks.
35

growth inhibition lookup needed for CCc1cccc(C(C)C)c1NC(=O)C(=O)C1C(=O)Nc2ccccc2S1=O (stereo unspecified) , thanks.
-11.2

----------
# growth inhibition per record follows
# Assay: NCI Yeast Anticancer Drug Screen. Data for the mec2-1 strain (AID 157)
# Condition Parameters: S. cerevisiae mec2-1 strain, at 50.0 µM, hits give high values
Compounds without any hit were thinned out: in the full panel of roughly 79,000, 15% have a hit.
Write the value in % as a bare number.

Solved cases below.
{"Compound": "Cn1cc(Cc2ccc(-c3ccccc3)cc2)c(=O)c(Cc2ccc(-c3ccccc3)cc2)c1", "Number": 6.75}
{"Compound": "O=C(O)c1ccncc1", "Number": -9.65}
{"Compound": "CCCCCC(=O)/C=C/Sc1n[nH]c(=O)[nH]c1=O", "Number": 41.1}
{"Compound": "Cc1cc(C(F)(F)F)cc(-n2nc(NS(=O)(=O)c3cc(C)c(Cl)cc3S)nc2N)n1", "Number": 10.1}
{"Compound": "CN1C(=O)c2ccccc2CC12c1ccccc1C(=O)N2C (stereo not drawn)", "Number": -13.6}
{"Compound": "CC(=O)Oc1c(C)c2c(O)c3c1C1=C(OCOC1=C(C)C3=O)/C(C)=C\\C(C)(O)C(O)C(C)C(O)C1C(=O)OC(C(C)C1O)C(C)(O)/C=C/C=C(C)C(=O)N2 (stereo not drawn)", "Number": 3.65}
{"Compound": "CN(c1ccccc1)C1C(=O)N(c2ccccc2)C1/C=C/c1ccccc1 (stereo not drawn)", "Number": 0.8}
{"Compound": "NC(=O)C1=C(O)C(=O)NC1=O", "Number": 1.55}

growth inhibition lookup needed for "Nc1nc2c(c(=O)[nH]1)CN(c1ccc(S(N)(=O)=O)cc1)CN2" , thanks.
-24.6

----------
# Assay: NCI Yeast Anticancer Drug Screen. Data for the mlh1 rad18 strain (AID 175)
# Condition Parameters: S. cerevisiae mlh1 rad18 strain growth inhibition; at 50.0 µM
About 79,000 compounds went through this panel and 15% of them were active in at least one assay; those are over-represented in the sample as a whole. Calls of active or inactive are those of the source. Cut-off read from the data, not from the text of the source: active = growth inhibition above about 70%; inactive = the rest.
Hi! Could you answer with just one of these? active, inactive

{"Compound": "CN(/N=C/c1ccc(O)c(/C=N/N(C)c2ccccn2)n1)c1ccccn1", "Class Name": "inactive"}
{"Compound": "CC(=O)N(C(=O)CC(=O)N/N=C\\c1ccc(Br)c(N(CCC#N)CCC#N)c1)c1ccc(Cl)cc1", "Class Name": "inactive"}
{"Compound": "Nc1ncnc2c1ncn2C(=O)NC12CC3CC(CC(C3)C1)C2", "Class Name": "inactive"}

State the result this test recorded for "CCCC(=O)OCC(C)(C)COC(=O)CCC" .
inactive

State the result this test recorded for "CC(=O)OCc1cccc(O)c1C(=O)CCC=C(C)C" .
inactive

State the result this test recorded for "N#Cc1nc(CC(=O)/C=C/c2ccccc2)c(CC(=O)/C=C/c2ccccc2)nc1C#N" .
inactive

State the result this test recorded for COc1ccc(C(C#N)N2CCCN(C(C#N)c3ccc(OC)cc3)C2c2ccccc2)cc1 (centres undefined) .
inactive

State the result this test recorded for "CNc1nc(N)nc(N)c1N1CCN(c2ccc(C(=O)O)cc2)CC1" .
inactive

State the result this test recorded for Nc1ccc(C(=O)CC(N)C(=O)O)cc1O (centres undefined) .
inactive

State the result this test recorded for COC(=O)C1C(=O)c2ccccc2C(C)C1c1ccccc1C (centres undefined) .
inactive

State the result this test recorded for "Nc1c(S(=O)(=O)O)cc(Nc2cccc(S(N)(=O)=O)c2)c2c1C(=O)c1ccccc1C2=O" .
inactive

State the result this test recorded for "COC(=O)C(C#N)(CCC(=O)c1ccccc1)CCC(=O)c1ccccc1" .
inactive

State the result this test recorded for "CCCCCCCCCCCCCCCCCCOc1c(Cl)c(Cl)c(Cl)c(Cl)c1Cl" .
inactive

State the result this test recorded for CCCCc1ccc(Nc2nc(OC)c3ncn(C4CC(O)C(CO)O4)c3n2)cc1 (centres undefined) .
active

State the result this test recorded for "C/C(=N\NC(=S)N1CCN(c2ncccn2)CC1)c1ccccn1" .
inactive

State the result this test recorded for "NC(=O)C1=C(O)C(=O)NC1=O" .
inactive

State the result this test recorded for "O=C(CCN1CCOCC1)c1csc2ccccc12" .
inactive

State the result this test recorded for "O=C(O)c1c(O)ccc(O)c1C(=O)O" .
inactive

State the result this test recorded for "O=C1c2cc([N+](=O)[O-])cc3cc([N+](=O)[O-])cc(c23)C(=O)N1CCNCCNCCNCCN1C(=O)c2cc([N+](=O)[O-])cc3cc([N+](=O)[O-])cc(c23)C1=O" .
active
